Readings of SPOT peptide array binding signal intensity for the listed binders
target: SpRvs167; assay: SPOT peptide array binding signal intensity (averaged, normalized) (arbitrary units (background-subtracted, floor 0; scale differs between SH3 domains)); higher = stronger binding of the SH3 domain to the peptide
In your answer, state the number alone without any accompanying words.

Inquiry: Item YLTRPLPSTPNEDSR has what recorded SPOT peptide array binding signal intensity?
Reply text: 777

Inquiry: Item LKHGWKPLRPIKLIS has what recorded SPOT peptide array binding signal intensity?
Reply text: 7.5

Inquiry: Item RPKRRAPPPVPKKPS has what recorded SPOT peptide array binding signal intensity?
Reply text: 1300

Just for reference, the supplement of paper PMC4466140 is where these values come from.
